Below, each entry is listed alongside its reported log10 Kd.
# Target system: 4E10 antibody
# Protocol description: SPR
Assay endpoint: log10 Kd (log10 of the value in pM)

- Binder: "10E8_T93v2RT12-1 (designed binder) GKADEVREKARRRMEQAVEEFKRRLRQFEEKVKQKEPRDDEINRWIDIVKKKADEAKKRVEEVGDQAADEAAQLGNDPNVNWFDITNVLWDVKKLTEKAINDIDDALKKMKDWLESGLEHHHHHH"
  log10 Kd: 1.26
- Binder: "10E8_T117v2-3 (designed binder) NAMQGIHFRRHYVRHLPKEVSQNDIIKALASPLINDGMVVSDFADHVITREQNFPTGLPVEPVGVAIPHTDSKYVRQNAISVGILAEPVNFEDAGGEPDPVPVRVVFMLALGSWFNISNVLWWIRAVIQDEDFMQQLLVMNDDEIYQSIYTRISELEHHHHHH"
  log10 Kd: 2.72
- Binder: "10E8_T117v2-2 (designed binder) NAMQGIHFRRHYVRHLPKEVSQNDIIKALASPLINDGMVVSDFADHVITREQNFPTGLPVEPVGVAIPHTDSKYVRQNAISVGILAEPVNFEDAGGEPDPVPVRVVFMLALGNWFSITKVLWWIKAVIQDEDFMQQLLVMNDDEIYQSIYTRISELEHHHHHH"
  log10 Kd: 1.73
- Binder: "10E8_T117v2-4 (designed binder) NAMQGIHFRRHYVRHLPKEVSQNDIIKALASPLINDGMVVSDFADHVITREQNFPTGLPVEPVGVAIPHTDSKYVRQNAISVGILAEPVNFEDAGGEPDPVPVRVVFMLALGNWFDISRVLWWIKAVIQDEDFMQQLLVMNDDEIYQSIYTRISELEHHHHHH"
  log10 Kd: 3.59
- Binder: "10E8_T117v2-1_g28_g91012 (designed binder, added N-linked glycosylation sites (glycan-masked)) NAMQGIHFRRHYVRHLPKNVSQNDIIKALASPLINDGMVVSDFADHVITRENNSPTGLPVEPVGVAIPHTDSKYVNQSAISVGILAEPVNFEDANGTPDPVPVRVVFMLALGNWFDITNVLWWIKAVIQDEDFMQQLLNMSDDEIYQSIYTRISE"
  log10 Kd: 2.69
- Binder: "10E8_T117v2-1 (designed binder) NAMQGIHFRRHYVRHLPKEVSQNDIIKALASPLINDGMVVSDFADHVITREQNFPTGLPVEPVGVAIPHTDSKYVRQNAISVGILAEPVNFEDAGGEPDPVPVRVVFMLALGNWFDITNVLWWIKAVIQDEDFMQQLLVMNDDEIYQSIYTRISELEHHHHHH"
  log10 Kd: 2.23
- Binder: "10E8_T93v2RT12-3 (designed binder) GKADEVREKARRRMEQAVEEFKRRLRQFEEKVKQKEPRDDEINRWIDIVKKKADEAKKRVEEVGDQAADEAAQLGNDPNVSWFNISNVLWDVRKLTEKAINDIDDALKKMKDWLESGLEHHHHHH"
  log10 Kd: 2.76
- Binder: "10E8_T117v2-1_RSF1 (designed binder) NAMAGIVFRKHYVRHLGKTVTQNEIIRALAAPLISDGMVVKDFADHVIKREEQNPTGLPVQPVGVAIPHTDSKYVYYNAISVGILQEPVAFEDAGGDGRPVPVRVVFMLALGNWFDITNVLWWIKAVIQDDEFMKRLLYMTDDKIYESIRKRIYDLE"
  log10 Kd: 2.00
